# protocol-text: label from the status in PepcDB records
experimental-readout: protein production

polymer-sequence	result
MAFDAARYVHRYYASLAPAPGNEYPRLRAWEYLWEYVWDPSRSWDDLTAPEQLDTTALHLGFYLANWGMFRGSSGLLQNSNLDLMKALARQLFSGAGPELFELSLVDFAGNGARLAHNRKLLETVLGSMDALSSRVSWTDTLKSKILLGVWGEFPALDRHYVAACRALYPRRGLTSVNGGTLTALHRLIGEERLSFPRLETARKGLLYPTGRLADMAFFQYGLENALEHHHHHH	not failed
MRKIVLFGDSITAGYLDEAVSPVLVDLVKRDIAAMGLEEVAVINAGMPGDTTEDGLKRLNKEVLIEKPDEVVIFFGANDASLDRNITVATFRENLETMIHEIGSEKVILITPPYADSGRRPERPQTRIKELVKVAQEVGAAHNLPVIDLYKAMTVYPGTDEFLQADGLHFSQVGYELLGALIVREIKGRLKPKQA	not failed

###

# protocol-text: label from the status in PepcDB records

polymer-sequence	protein production
MMTALATVTGVERHGKQYEIDLSCEQQTSCSSCSSQKSCGTGVVTKAIGNKSLSWHLRTEKNVQVGQVVEIGFPESSLIKS	failed
MLRNIIRFKGFGKGTSGGFLKPVSFRVQLTRCYRYDNGPSYRRFNNGEYSQKSSFKSILLDKSSRKYLALLFGGCSLFYYTHLDKAPVSDRSRFIWVSRPLELTIGNYTYKSIWRQTQQEILPPQHPLSIKIENIFMKIVEAAYKDPSVDNSLLDGIKWEIHVVNDPTASPNAFVLPGGKVFIFSSILPICANDDGIATVLAHEFAHQLARHTAENLSKAPIYSLLGLVLYTVTGAHAINNILLDGFLRMPASRQMETEADYIGLMIMSRACFQPQESIKVWERMANFEKQMNRGGVVNMEFLSTHPASTRRIENMSKWLPKANEIYEQSDCSSMGNYYKSFFSM	failed
MTEARKIPKPSFPYGSPGELNSFLPYLLTRITHIWSSELNQALASEKLPTPKLRLLSSLSAYGELTVGQLATLGVMEQSTTSRTVDQLVDEGLAARSISDADQRKRTVVLTRKGKKKLAEISPLINDFHAELVGNVDPDKLQTCIEVLGEILKGKTDY	not failed
MGKRIAFWFEFASTYSYLSAMRIERAAADLGVTIAWEPFLLGPIFAAQGWTSSPFNLFPAKGRYMWRDMERLCARQGLPLTRPDPFPQNGLPAARLAMVAREMGHIAPFVRAVYAAQFGRGLVISDPQVLAECWAEAGLPPEAMEQAKSPEIKAALFAQGERAAALDLFGAPSFVVGEEVFWGDDRLDQALALAAQS	not failed

###

# protocol-text: label from the status in PepcDB records

polymer-sequence	protein production
MRKRARIIYNPTSGKELFKRELPDALIKLEKAGYETSAYATEKIGDATLEAERAMHENYDVLIAAGGDGTLNEVVNGIAEKPNRPKLGVIPMGTVNDFGRALHIPNDIMGALDVIIEGHSTKVDIGKMNNRY	failed
MPTALGYVSIGLACGIIGAPYVTPVEMGLMSLFVYAGSAQFAMLALIVVQAPVAAIAMTVFLINLRLFLLSLHASTYFRHTSLWYNIGMSSILTDETYGVLMGELAHTDKVNPMWMHGNNLNSYVAWFVGTVVGTALGGLLPNPEIFGLDFALVGMFIGIFASQFQIMQRRIPVRNLLIILAVVAVSFFLLLTVMSQSLAVLFATLLGCSMGVVLDGQ	failed
MLSMLALGSEKLMMGNNFPGSGVCFVYTDFGIPEYYRIIVLGLIALVGIKEMLLTSRKEDHFSIDSIDIGIFPLLICFVANFLFAGLEIIFTGLSP	failed

###

# protocol-text: label from the status in PepcDB records

polymer-sequence	protein production
MSDVPHLRFPEFSGEWEEHTLSEYLEFKNGLNPDAKRIGSGLPFISVMDILSEGVINYDNIRGKVNATEKEIECFGVKDGDLLFQRSSETLEDVGRANVYMDNRTAIYGGFVIRGRKIGNYDPLFFKYLLATPLARKRTCRMGAGAQHFNIGQEGLSKISLYFPSIEEQRKIAEFLSLIDERIATQNKIIEDLKKLKSAISLNVLHSDKWEQFKIKDIAQIGRGRVISSIEIGQQKSPTYPVYSSQTSNDGIMGYLDDYMFEGEYISWTTDGANAGTVFYRNGKFNCTNVCGLLKLRKEFDTHFVSLVLAEATKKYVSINLANPKLMNNTMGNIQIRLPKLEEQKRISIVFRVLQRLWTVHNSLLTEYTKQEQYLLSQMFILEHHHHHH	failed
MISGISGILCVVLVSKGKISNYFFGLIFAYTYFYVAWGSNFLGEMNTVLYVYLPSQFIGYFMWKANMQNSDGGESVIAKALTVKGWMTLIVVTTVGTLLFVQALQAAGGSSTGLDGLTTIITVAAQILMILPLS	failed

###

# protocol-text: label from the status in PepcDB records

polymer-sequence	protein production
MGHHHHHHSHMNSCILQATVVEAPQLRYTQDNQTPVAEMVVQFPGLSSKDAPARLKVVGWGAVAQELQDRCRLNDEVVLEGRLRINSLLKPDGNREKQTELTVTRVHH	not failed
LVTISSTSAASLPTMPPSGYDQVRNGVPRGQVVNISYFSTATNSTRPARVYLPPGYSKDKKYSVLYLLHGIGGSENDWFEGGGRANVIADNLIAEGKIKPLIIVTPNTNAAGPGIADGYENFTKDLLNSLIPYIESNYSVYTDREHRAIAGLSMGGGQSFNIGLTNLDKFAYIGPISAAPNTYPNERLFPDGGKAAREKLKLLFIACGTNDSLIGFGQRVHEYCVANNINHVYWLIQGGGHDFNVWKPGLWNFLQMADEAGLTRDGNT	not failed
MAHPFLRTIFEVVITLYMLHNLYKVLGDDEMDLEEMSSFFNKRVNEYEEHMMNNVGGANQYYIETAKLIPRGKEINILDLGCGTGLELDEIFKINNTVRVTGIDLAENMLRKIKEKHKDKLDRLTLIVGDYFSCDIGEKVFDAALSVETLHHFNHEQKIKLYKKIVRSLKDNGVYIEADYMAPNQDYEDHCFNENKRIRLELGIKDGFYHYDTPCTVENQIKMLYKSGFKSVEKVFKAENTVILLAKK	failed
IKSISKDYFDYLQTESKFIPLENETIEFYSPIVDYFGDSISVNISFSGDRYKLTDHGETLWNMEQLGIDLTSNKKQKKYQLLNNIVQNYSLVIENKHINFYTNRINLSQAIHDYVLAISEISYLGILKKENIKSLFKDEVMQYFLSNRKIYPNIFPEFKVEGKSKLIHSFEAVFPGEATEYVKTIKRIDKNNAKNVLFDWNDVEIHRNKNFDSNARLNIITEQQDDISEAVSTMLSQYNVEVFSFENKKQLEEKF	failed

###

# protocol-text: label from the status in PepcDB records
experimental-readout: protein production

polymer-sequence	experimental-readout	result
MQISDIEVFAAIASSRSLSEAARRLGLSPMAISRRLAALENDLGVRLFHRTTRSVSLTPEGEVFLPHAKTILEASEAARTTLKADAGSASGVLRVTAPSVFGQTVIMPLLPALMLENPALSIDLTLSDSIVDIAGLGIDVAIRIATIRDSALVARSLAPNPRVVCVSPDYLARHGKPTLLEELRHHPCIALHAMPWWPFTRNGEPITIRAQGPFSANSVEAVRTACKQGMGLAMLTYWDVRQEINEGSLQQVDFEDAMPEQLSVTAVLPTRQRVPHRVRLFIDRLEAALKSKAGAAGVTL	protein production	failed
MSTMTATSGRAKRPQKPITLVGVDVYVITEDGIPKFDEYGPFKIEFISNRGTKVWPGYVSPDLMLVNWYRCRFTATRPVTDKDVDAFVGELGKKHLWSAVQKLWNYGDEAGFSKAY	protein production	failed

###

# protocol-text: label from the status in PepcDB records

polymer-sequence	protein production
MSPIEHAVISAAGIGSRLGLNKPKCLVEVGGKTLLAQHLERLAEIPNVWVVVGFQEELVIEQVRNLRRDAIIVRNPDFDRTNTLQSIHRVSRYLDRRFLAVDGDTFIENRSFERFLRAAAGQAGLIGVSRYTTSDGVRVLLDAGGEAVTAFTREPQHAYEWTGIAILRPDMVVDRPIYVYQALEPYLPLPAQELDAFDIDTASDLDMARRVHLNNWNLND	failed
MLKGFTRSSISPQLCSLYFKGLVGDDSLAGFGVAICGHRDDILFQLNAPIHGSDITVLEAELMALKRGLIEAAGFKSSFTIFVEGSSIRYVSELARATIVSELSISVDPPSSSLNGIEKLKLEDVIVWNVVNPYASTAKFGKSENVASMWKVPTHDRTFRRMHQSNLQFTFDFLGCWIGVAIRFATHAEQNGSKEVALIEQ	failed
VRTLWISDVHLGTRDCQAEHLSAFLKRYQADKVYLVGDIIDGWKLRGGMYWPQAHTNVIRRLLTMSKRGTEVIYVTGNHDEFLRRYSKLILGNIQLVDEAEHVTADGRRFLVIHGDQFDVITRYHRWLAFLGDSAYEFTLTLNRWLNHWRAKYGYGYWSLSAYLKHKVKSAVNFISDFEEAIAHECVKRGLDGVVCGHIHHAEIRQVGGVEYLNCGDWVESCTALIEHLDGNIELFRLA	failed
